Where these numbers come from: PubChem BioAssay AID2060493

# viability, T/C per record follows
# System: 616215-338-R-J1-PDC tumor spheroids, viability;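 further: spheroids exposed to agents for 7 days before readout; percent viability relative to DMSO vehicle control wells taken as 100%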
# EXPERIMENT: Anticancer human tumor 616215-338-R-J1-PDC patient-derived colon adenocarcinoma cell line growth inhibition [GQUAD]
# STATED_CONDITIONS: second compound 0.316 µM; first compound 0.316 µM; hits give low values; spheroids with HUVEC and MSC
The response must be a number in % with no trailing unit.

response.value for CC1COCCN1c1cc(C2(S(C)(=N)=O)CC2)nc(-c2ccnc3[nH]ccc23)n1 (stereo unspecified) + CN(C)c1ccc(Nc2c3ccc(NC(=O)CCN4CCCC4)cc3nc3cc(NC(=O)CCN4CCCC4)ccc23)cc1 (field: viability, T/C) = 102

response.value for CCCS(=O)(=O)Nc1ccc(F)c(C(=O)c2c[nH]c3ncc(-c4ccc(Cl)cc4)cc23)c1F + Cc1[nH]c2ccc(F)cc2c1-c1nc2c3cccnc3c3ncccc3c2[nH]1 (field: viability, T/C) = 99

response.value for C=CC(=O)N1CCN(c2nc(=O)n(-c3c(C)ccnc3C(C)C)c3nc(-c4c(O)cccc4F)c(F)cc23)C(C)C1 (stereo unspecified) + Cc1cnc(CNC(=O)c2c(=O)c3ccc(N4CCCN(C)CC4)nc3n3c2sc2ccccc23)cn1 (field: viability, T/C) = 62.8

response.value for CC1COCCN1c1cc(C2(S(C)(=N)=O)CC2)nc(-c2ccnc3[nH]ccc23)n1 (stereo unspecified) + Cc1cnc(CNC(=O)c2c(=O)c3ccc(N4CCCN(C)CC4)nc3n3c2sc2ccccc23)cn1 (field: viability, T/C) = 44.1

response.value for C=CCn1c(=O)c2cnc(Nc3ccc(N4CCN(C)CC4)cc3)nc2n1-c1cccc(C(C)(C)O)n1 + Cc1cnc(CNC(=O)c2c(=O)c3ccc(N4CCCN(C)CC4)nc3n3c2sc2ccccc23)cn1 (field: viability, T/C) = 30

response.value for O=C(c1cc(Cc2n[nH]c(=O)c3ccccc23)ccc1F)N1CCN(C(=O)C2CC2)CC1 + Cc1cnc(CNC(=O)c2c(=O)c3ccc(N4CCCN(C)CC4)nc3n3c2sc2ccccc23)cn1 (field: viability, T/C) = 46.4

response.value for Nc1ccn(C2OC(CO)C(O)C2(F)F)c(=O)n1 (stereo unspecified) + CN(C)c1ccc(Nc2c3ccc(NC(=O)CCN4CCCC4)cc3nc3cc(NC(=O)CCN4CCCC4)ccc23)cc1 (field: viability, T/C) = 11.3

response.value for COc1cc(C2c3cc4c(cc3C(OC3OC5COC(C)OC5C(O)C3O)C3COC(=O)C23)OCO4)cc(OC)c1O (stereo unspecified) + Cc1cnc(CNC(=O)c2c(=O)c3ccc(N4CCCN(C)CC4)nc3n3c2sc2ccccc23)cn1 (field: viability, T/C) = 29.3

response.value for Cc1cccc(N(C)C(=O)C2C(O)CCN2c2nc(C)cc(C(F)(F)F)c2C#N)c1 (stereo unspecified) + Cc1cnc(CNC(=O)c2c(=O)c3ccc(N4CCCN(C)CC4)nc3n3c2sc2ccccc23)cn1 (field: viability, T/C) = 50.2

response.value for O=C(NO)c1cnc(N2CCN(S(=O)(=O)c3ccc4ccccc4c3)CC2)nc1 + CN(C)c1ccc(Nc2c3ccc(NC(=O)CCN4CCCC4)cc3nc3cc(NC(=O)CCN4CCCC4)ccc23)cc1 (field: viability, T/C) = 38.2

response.value for C#Cc1c(F)ccc2cc(O)cc(-c3ncc4c(N5CC6CCC(C5)N6)nc(OCC56CCCN5CC(F)C6)nc4c3F)c12 (stereo unspecified) + CN(C)c1ccc(Nc2c3ccc(NC(=O)CCN4CCCC4)cc3nc3cc(NC(=O)CCN4CCCC4)ccc23)cc1 (field: viability, T/C) = 110
